IC50 values by entry
# Experimental system: Human TRPC6 (Homo sapiens)
# Construct: expressed in transfected cells
# Sequence (Q9Y210 1-931): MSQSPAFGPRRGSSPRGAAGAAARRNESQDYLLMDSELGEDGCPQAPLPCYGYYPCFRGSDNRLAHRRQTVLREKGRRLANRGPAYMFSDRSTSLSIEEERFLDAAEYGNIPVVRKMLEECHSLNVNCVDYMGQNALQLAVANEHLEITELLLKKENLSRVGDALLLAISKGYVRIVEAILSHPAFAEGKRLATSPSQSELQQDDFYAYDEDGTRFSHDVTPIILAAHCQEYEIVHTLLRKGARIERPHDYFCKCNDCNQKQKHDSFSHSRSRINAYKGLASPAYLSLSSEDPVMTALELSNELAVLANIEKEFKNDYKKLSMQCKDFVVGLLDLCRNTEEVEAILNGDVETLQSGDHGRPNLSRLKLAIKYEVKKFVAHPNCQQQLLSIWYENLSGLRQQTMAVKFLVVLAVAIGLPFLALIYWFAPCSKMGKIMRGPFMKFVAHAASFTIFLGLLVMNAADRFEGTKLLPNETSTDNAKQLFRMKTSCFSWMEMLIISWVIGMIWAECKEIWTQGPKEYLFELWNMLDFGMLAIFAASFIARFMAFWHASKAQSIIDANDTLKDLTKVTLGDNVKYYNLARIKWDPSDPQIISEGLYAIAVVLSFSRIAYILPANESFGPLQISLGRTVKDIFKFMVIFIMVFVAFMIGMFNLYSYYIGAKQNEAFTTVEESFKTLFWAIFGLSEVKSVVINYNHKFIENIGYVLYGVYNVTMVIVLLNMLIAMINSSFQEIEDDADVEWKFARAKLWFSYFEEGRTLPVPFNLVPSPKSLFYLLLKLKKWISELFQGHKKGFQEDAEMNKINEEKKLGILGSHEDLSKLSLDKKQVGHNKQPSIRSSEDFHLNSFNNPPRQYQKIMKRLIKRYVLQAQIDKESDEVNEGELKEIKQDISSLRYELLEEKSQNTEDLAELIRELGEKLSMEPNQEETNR
# Method description: Evaluation of TRPC6 channel inhibitory activity (2), HEK293 cells with stably introduced human TRPC6, OAG stimulation, FLIPR tetra (Compound Nos. 1293 to 1405)
# Format: cell-based
# Test settings: HEK293 cells with stably introduced human TRPC6, OAG 50 μM/0.5% DMSO, read-out: Inhibitory activity (pIC50 class) (converted)

Worked cases, IC50 given:
INSERT INTO assay_data (smiles_record, recorded_endpoint, reported_measurement) VALUES
  ('Cn1nc(C2CCOCC2)cc1Oc1cc(C#N)ccc1-c1ccc([C@H](F)CN)cn1', 'IC50', '< 10 nM'),
  ('Cn1nc(-c2ccccn2)cc1Oc1cc(C#N)ccc1-c1ccc([C@H](F)CN)cn1', 'IC50', '< 10 nM'),
  ('Cn1nc(C2CC2)cc1Oc1cc(C#N)ccc1-c1ncc([C@H](F)CN)cn1', 'IC50', '< 10 nM'),
  ('Cn1nc(C2CC2)cc1Oc1cc(Cl)ccc1-c1ncc([C@H](F)CN)cn1', 'IC50', '10 to 1000 nM'),
  ('Cn1nc([C@H]2CCCOC2)cc1Oc1cc(C#N)ccc1-c1ccc(CN)cn1', 'IC50', '< 10 nM'),
  ('Cn1nc(-c2ccccn2)cc1Oc1cc(C#N)cnc1-c1ccc(CCN)cc1', 'IC50', '> 1000 nM'),
  ('Cn1nc(C2CCOCC2)cc1Oc1cc(Cl)cnc1-c1ccc([C@H](F)CN)cn1', 'IC50', '< 10 nM');

The record that follows has no IC50 shown yet.
Considering Cc1cc(Oc2cc(Cl)ccc2-c2ncc([C@H](O)CN)cn2)cc(N2CCOCC2)n1 , its IC50 with Human TRPC6 (Homo sapiens) was recorded as 10 to 1000 nM

Ref: patent US20230167073A1
